The reported measurements were obtained from PubChem BioAssay (EPA / NIEHS).

read-out: CD40, CD40 (gene 958); assay: BSK_LPS_CD40: BioMAP Diversity Plus: LPS Assay for CD40 Biomarker Activity (AID 2283076); conditions: primary human HUVEC with PBMC; actives raise or lower the signal
The source made the active and inactive calls. How the source made its calls: active means hit-call score of the fitted dose curve at least 0.9, where 1 is the maximum; inactive means score below 0.9.
Select the correct class. Options are 1 (yes) (active), 0 (no) (inactive) and nothing else.

Take a look at these entries with their results.
| Compound | Classification |
| --- | --- |
| Cc1nc(N(C)C)nc(OC(=O)N(C)C)c1C | 0 (no) |
| CCCN(CC)CC1COC2(CCC(C(C)(C)C)CC2)O1 (stereo unspecified) | 0 (no) |
| CNC(=O)N(C)c1nnc(C(C)(C)C)s1 | 0 (no) |
| O=C(O)c1c(Cl)ccc2cc(Cl)cnc12 | 0 (no) |
| CC(C)Nc1nc(Cl)nc(NC(C)C)n1 | 0 (no) |

Moving on to the next compound.
How was COP(=S)(OC)Oc1ccc([N+](=O)[O-])c(C)c1 classified in this test?
0 (no)
